Source: the METLIN SMRT retention time set (Domingo-Almenara et al. 2019)

# protocol.description: gradient 5% acetonitrile 3 min, to 50% in 2 min, to 85% in 15 min, held 3 min, 100 µL/min
# study.conditions: column: Zorbax Extend-C18 2.1 x 50 mm; eluents: water / acetonitrile, 0.1% formic acid
The label depends only on RP-LC retention time: true (1) if it is at least 700 s, false (0) if it is smaller.

• CC(C)Oc1cncc(C(N)=O)c1 = false (0)
• CC(C)n1nc(CO)c2c1CCN(C(=O)C1COc3ccccc3O1)C2 (stereo not given) = false (0)
• CCOC(=O)N1CCC(NC(=O)c2csc(-n3cccc3)n2)CC1 = true (1)
• Cc1nccn1CCNC(=O)C(=O)Nc1ccc2c(c1)N(C(=O)C(C)C)CCC2 = false (0)

* * *

# protocol.description: gradient 5% acetonitrile 3 min, to 50% in 2 min, to 85% in 15 min, held 3 min, 100 µL/min
# study.conditions: column: Zorbax Extend-C18 2.1 x 50 mm; eluents: water / acetonitrile, 0.1% formic acid
property.name: RP-LC retention time

- O=C(c1ccncc1)N1CC(N(Cc2ccncc2)CC2CC2)C1: 519 s
- COc1cccc(CN2CCC3(CC2)NCCc2c3[nH]c3ccccc23)c1: 583 s
- Cc1ccc(C)c(C(=O)N2C[C@H](c3nc(-c4cccnc4)no3)[C@@H](C)C2)c1: 836 s
- COC(=O)CC(NC(=O)N1CCCn2nc(-c3ccncc3)cc2C1)c1ccccc1 (stereo unspecified): 608 s
- Cc1nn(C2CCS(=O)(=O)C2)c(C)c1C(=O)O (stereo unspecified): 571 s
- CCNC(=O)N1CC(n2cc(C(=O)NCCC3=CCCCC3)nn2)C1: 721 s
- CCN(Cc1ccc(C)cc1)Cc1cc(=O)n2cc(Cl)ccc2n1: 652 s
- CC(C)c1noc(-c2ccnc(-n3cnc(C(=O)NCc4ccccc4)c3)c2)n1: 939 s
- COc1ccc(-c2nnc(-c3ccc(OC)c(S(=O)(=O)N(C)C)c3)o2)cc1OC: 807 s
- Nc1nc(=O)n(C2CS[C@H](CO)O2)cc1F (stereo partly specified): 571 s
- Cc1nc(C2CN(S(=O)(=O)c3ccccc3F)CC23CCOCC3)no1 (stereo unspecified): 812 s
- O=C(Cc1ccc(Cl)cc1)Nc1cnc(N2CCCCC2)nc1: 962 s
- CCc1ccc(CN2C(=O)CN(S(C)(=O)=O)CC2(C)C(=O)NCc2ccccc2)cc1 (stereo unspecified): 868 s
- CCSc1ccc(Cc2nnc(NC(=O)c3ccc(S(=O)(=O)N(C)C)cc3)o2)cc1: 819 s
- Cc1ccn2cc(C(=O)NCC3CCCCC3)nc2c1: 714 s
- COc1cccc(-c2csc(-c3nnn(-c4ccccc4)c3N)n2)c1: 1040 s
- Cc1cc(NC(=O)c2ccccc2)cc(C)c1O: 705 s
- Cc1cc2n(n1)CCC(=O)N2CCCC(=O)NCc1ccco1: 619 s
- Cc1ccc(-n2c(N3CCCC(C(=O)NCc4ccccc4Cl)C3)nc3ccsc3c2=O)cc1 (stereo unspecified): 946 s
- COC1C(=O)N(c2cccc(F)c2)C12CCNCC2 (stereo unspecified): 604 s
- O=C(Cc1nnc(-c2cccc(F)c2)o1)NC1CCCC1: 746 s

* * *

This section presents compounds with their documented RP-LC retention time values.
# protocol.description: gradient 5% acetonitrile 3 min, to 50% in 2 min, to 85% in 15 min, held 3 min, 100 µL/min
# study.conditions: column: Zorbax Extend-C18 2.1 x 50 mm; eluents: water / acetonitrile, 0.1% formic acid
property.name: RP-LC retention time (s)

- Fc1cccc(-c2nnc(Cc3nc(-c4ccc(Cl)cc4)no3)o2)c1: 1110
- O=C(CN1C(=O)C2CCCCN2c2ccc(C(=O)N3CCCC3)cc21)NC1CCCC1 (stereo not given): 732
- Cc1nc(-c2cn(C)c3ncccc23)sc1C(=O)NCc1ccc(F)cc1F: 887
- COc1ccc(Nc2c(-c3ccc(SC)cc3)nc3cnccn23)cc1: 908
- Cc1cc(NC(=O)C(=O)NCCCn2ccnc2)ccc1Br: 659
